Tested on: MS2 coat protein
Experiment: apparent KD of MS2 coat protein; designed switch direction (-1 OFF switch, 1 ON switch): 1; higher = weaker reporter binding
Conditions: Eterna round: R95; input ligand: FMN 200 uM
Reported apparent KD of MS2 coat protein is given for each of the following sequences.
Please reply with the bare figure in nM and do not write the unit itself.

UUUUUUUUUUAGAGACAAGCUUUUUGAUCACAUGAGGAUCACCCAUGUCUCGUCUUAUUUUUUUUUUUUUUUUUUUU [BA Sensor hsa-mir-208a - 2 - 4] (puzzle: Sensor for hsa-mir-208a)    37.3
GGGCCAGCUUUUGCUGGGCCUUCGCUUGCACAUGAGGAUCACCCAUGUCGUGUACACGCUUCCUGCCCGUCUUUUUU [Photon Torp-18] (puzzle: Sensor for hsa-mir-208a)    21.2
UAAAAACAUGAGGAUCACCCAUGUCAAAAGACAUGAGGAUAUGUACAGACUUCGGUCUGUACAGAAGGCAUGAAAA [salish99_ss1_r3_094] (puzzle: Same State 1)    33.3
UCUUGGUUUUUGCUCGUUUUUUGUGUUGAACAUGAGGAUCACCCAUGUAUUAUACGGUCCGGUUUAGUAGUGGUCCA [JMF 78] (puzzle: Sensor for hsa-mir-208a)    86.1
UCUUGGUUUUUGCUCGUUUUUUGUGUUGAACAUGAGGAUCACCCAUGUAUUGUACGGUCCAAUUUAAUAGUGGUCCG [JMF 24] (puzzle: Sensor for hsa-mir-208a)    25.5

Query string: State the recorded apparent KD of MS2 coat protein for this entry: AUUAAACAUGAGGAUCACCCAUGUCAACAAAGUCGAGGAUAUGGGCAUAUUAUCUUCUUUCCAGAAGGCGAAUAAU [salish99_ss1_r3_089] (puzzle: Same State 1)
Result string: 431

Query string: How about CGAUGAAACAAAGGAAGAAGAGUUGAAGUACAUGAGGAUCACCCAUGUCAGAGCUUUUUGCUCGUCAUGAACAGGAA [JR_SHM208a_Sub004] (puzzle: Sensor for hsa-mir-208a) ?
Result string: 35.9

Query string: Same question, AGUCCUGAAAAGAAAAUACAGAGACAUGUACAUGAGGAUCACCCAUGUCAUGUACAAGUUCUAUGCUCGUCAUAUAA [Sensorship 20 - Jieux - Sensor for hsa-mir-208a] (puzzle: Sensor for hsa-mir-208a) this time
Result string: 22.4

Query string: // query: CGUCCGGCCUGUGCUGGCCGGUUGCUUGUACAUGAGGAUCACCCAUGUUCUUGUGCAGGCUUUUUGCUCGUCUUGUG [salish99_mir208a_018] (puzzle: Sensor for hsa-mir-208a)
Result string: 212

Query string: Subsequent entry: AAGAAGACGAACAAGGAUAUGUCAAAGGAAACAUGAGGAUCACCCAUGUAGAGAUUGGAAAAGAAACAGAAGGUGUACAGAGAGA [JR_SS2_Sub006] (puzzle: Same State 2)
Result string: 18.7

Query string: Next record, please: GGAGGAUGAGCGUAGGAUAUAGGAGGAGUGACAUGAGGAUCACCCAUGUGGUAGGAGGGAGGGUACUAGAAGGACGAGGAAGAGG [JR_SS2_Sub070] (puzzle: Same State 2)
Result string: 54.6

Query string: Subsequent entry: UGGAUCUAGGCUUGCCUGGGUCCAUGUUGACAUGAGGAUCACCCAUGUGUAUUUUUUAAGCUUUUUGUUUGUCAACU [JL A Humble Attempt mod 9] (puzzle: Sensor for hsa-mir-208a)
Result string: 28.3

Query string: One more sequence: AGCAUACAUGAGGAUCACCCAUGUCAACUUAGUCGAGGAUAUGGGCAGCCCUGAGGCGAACCAGAAGGCGAAUUGA [Mat - Same State 1 - Mod of JL - D1] (puzzle: Same State 1)
Result string: 28.3

Query string: What would you report for AAAGCCCGUGCUAAGGAUAUGCGUACUCCUACAUGAGGAUCACCCAUGUCCCGCCGAAAAGGAAGGCAGAAGGUAGCACGAGCAA [Teerarti] (puzzle: Same State 2) ?
Result string: 53.7

Query string: Then UUUAGUUGCGGGCAGGAUAUGUAUUAAAAUACAUGAGGAUCACCCAUGUGGGACCGAAAAGGUCUACAGAAGGGCCAAUCGCGAC [Laonerce - 21] (puzzle: Same State 2) ?
Result string: 17.1

Query string: Same read-out for AACAUUCUAUCUGAGGAUAUCAUGAAAUAAACAUGAGGAUCACCCAUGUGCAGGAAAACUGCAUAUGAGAAGGCAGAUAGAUUGA [salish99_ss2_r3_022] (puzzle: Same State 2) ?
Result string: 44.9

Query string: Param item: AGUCCAGCAAGAGCUGGACAAAAGCAUGUACAUGAGGAUCACCCAUGUUCAUGUACAAGCUUUUUGCUCGUCAAAAG [Mat - hsa-mir-208a - Mod of JL - 72] (puzzle: Sensor for hsa-mir-208a)
Result string: 216

Query string: GUAGCAUGCAGGCAGGAUAUUCAUAUUAAAACAUGAGGAUCACCCAUGUAGGCCAAAAGGCCUUGGGAGAAGGGCCACAUGCUAC [Xeonanis - 19] (puzzle: Same State 2) ?
Result string: 34.9

Query string: Param item: AACAAUCUAUCUGAGGAUAUCAUGAAAUAAACAUGAGGAUCACCCAUGUGCAUGAAAACUGCAUAUGAGAAGGCAGAUAGAUUGA [salish99_ss2_r3_038] (puzzle: Same State 2)
Result string: 54.8

Query string: Next entry: AUUAAACAUGAGGAUCACCCAUGUCAACUAAGUCGAGGAUAUGGGCAAAUAAAAUAAGAACCAGAAGGCGAAUAAU [salish99_ss1_r3_074] (puzzle: Same State 1)
Result string: 55.9
